B1: C10orf62 (parent)
chain: MLWVQRKRRRKETSECPSDKDKSP

Variants of: B1
assay.method.text: protein stability index of a GFP-peptide fusion (GPS, HEK-293T) (PSI 1-6); higher = more stable;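 note: lentivirally expressed fusions sorted by FACS into six bins by GFP to DsRed ratio, PSI derived from sequencing read proportions per bin multiplied by bin number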
condition.notes: c terminus: a fixed tail appended
Lab note: anything with protein stability index at or over 3 counts as class 1; the rest go in class 0.

variant.identifier | classification
S23Y | class 0
K22E | class 0
R10L | class 0
K11L | class 1
K7F | class 0
R8H | class 1
R8M | class 1
P24N | class 0
R6M | class 1
K7T | class 1
